Ref: paper PMC4072508

// SPOT signal as a fraction of Bim BH3's signal on the same receptor and array lookup, one value per entry
testedTarget: T1, Mcl-1, Q07820
T1 chain: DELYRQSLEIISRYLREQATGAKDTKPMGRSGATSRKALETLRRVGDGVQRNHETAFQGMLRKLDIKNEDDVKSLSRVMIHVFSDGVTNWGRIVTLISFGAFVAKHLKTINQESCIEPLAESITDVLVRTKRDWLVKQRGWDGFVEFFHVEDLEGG
methodDescription: peptide SPOT array, c-Myc-tagged receptor at 1 uM or 100 nM, anti-c-Myc-Cy3
Hey, just send me the number, nothing else.

• TSRINEVQVNDSLLGDDLLLPAQSTL [SPHKAP] = 0.03
• QRLINLVGESLRLLLNTFVALSDLRC [BAT3] = 0.03

We next turn to a different binder, shown below.
Please fill in: SPOT signal as a fraction of Bim BH3's signal on the same receptor and array reported for LTETSLISGNDHRIGDITSCSVLWLN [FBXW5] = 0.03
